ASSAYED_SYSTEM: Falcipain-2 (Plasmodium falciparum)
Sequence (Q8I6U4 244-484): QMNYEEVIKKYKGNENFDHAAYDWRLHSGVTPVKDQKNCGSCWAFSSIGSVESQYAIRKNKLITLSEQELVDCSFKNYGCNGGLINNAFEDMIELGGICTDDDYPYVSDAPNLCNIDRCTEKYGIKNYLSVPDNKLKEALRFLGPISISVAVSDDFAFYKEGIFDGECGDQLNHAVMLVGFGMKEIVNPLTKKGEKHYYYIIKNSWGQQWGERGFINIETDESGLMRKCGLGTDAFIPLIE
METHOD_NOTES: biochemical
CONDITION_SET: Falcipain-2 (IC50 μM), mean of triplicate
MEASURED_PARAMETER: IC50 (µM)
State the answer as a number, implicitly in µM.

Some solved cases for reference:
> print(dat)
                               input.smiles  unit  test.result
1  O=C1CC2(CCN(c3cc(N4CCN(S(=O)(=O)c5ccc(F)c(F)c5)CC4)ncn3)CC2)Oc2ccccc21    µM          6.5
2  O=C1CC2(CCN(c3cc(N4CCN(S(=O)(=O)c5cccc(C(F)(F)F)c5)CC4)ncn3)CC2)Oc2ccccc21    µM          4.1

Turning now to a further record.
Entry "O=C1CC2(CCN(c3cc(N4CCN(S(=O)(=O)c5cc(F)cc(F)c5)CC4)ncn3)CC2)Oc2ccccc21" , IC50 reported as 7.2

----------
ASSAYED_SYSTEM: Falcipain-3 (Plasmodium falciparum)
Sequence (Q8IIL0 243-492): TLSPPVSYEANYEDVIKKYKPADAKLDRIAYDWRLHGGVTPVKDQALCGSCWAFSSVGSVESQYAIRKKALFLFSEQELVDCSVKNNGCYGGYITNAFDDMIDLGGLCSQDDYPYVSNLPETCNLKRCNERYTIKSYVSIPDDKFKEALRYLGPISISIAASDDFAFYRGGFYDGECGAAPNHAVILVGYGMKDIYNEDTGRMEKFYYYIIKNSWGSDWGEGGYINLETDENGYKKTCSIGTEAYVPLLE
MEASURED_PARAMETER: pIC50
By convention, pIC50 is the negative base-10 log of a molar concentration.

Some solved cases for reference:
> print(dat)
                               input.smiles  test.result
1  O=C1CC2(CCN(c3cc(N4CCN(S(=O)(=O)c5cccc(C(F)(F)F)c5)CC4)ncn3)CC2)Oc2ccccc21         5.27
2  O=C1CC2(CCN(c3cc(N4CCN(S(=O)(=O)c5ccc(F)cc5)CC4)ncn3)CC2)Oc2ccccc21         5.20
3  O=C1CC2(CCN(c3cc(N4CCN(S(=O)(=O)c5cc(F)cc(F)c5)CC4)ncn3)CC2)Oc2ccccc21         5.06

# pIC50 measured on Falcipain-3 (Plasmodium falciparum) for item "O=C1CC2(CCN(c3cc(N4CCN(S(=O)(=O)c5ccc(F)c(F)c5)CC4)ncn3)CC2)Oc2ccccc21" = 5.10

----------
Listed here: items and their measured Selectivity index (SI) with Pf3D7 strain, A5489.
System: lung cancer A5489 cell line
METHOD_NOTES: Cytotoxicity by MTT assay, lung cancer A5489 cell line
Assay type: cell-based, human
CONDITION_SET: cytotoxicity IC50 / Pf3D7 IC50
No unit in the answer, only the number.

> print(dat)
                                   compound               assayed.system  test.result
1  O=C1CC2(CCN(c3cc(N4CCN(S(=O)(=O)c5cccc(C(F)(F)F)c5)CC4)ncn3)CC2)Oc2ccccc21 [SZ14]  lung cancer A5489 cell line        23.31
2  O=C1CC2(CCN(c3cc(N4CCN(S(=O)(=O)c5ccc(F)cc5)CC4)ncn3)CC2)Oc2ccccc21 [SZ9]  lung cancer A5489 cell line        24.36
3  O=C1CC2(CCN(c3cc(N4CCN(S(=O)(=O)c5cc(F)cc(F)c5)CC4)ncn3)CC2)Oc2ccccc21 [SZ10]  lung cancer A5489 cell line        26.91

Turning now to a further record.
Entry O=C1CC2(CCN(c3cc(N4CCN(S(=O)(=O)c5ccc(F)c(F)c5)CC4)ncn3)CC2)Oc2ccccc21 [SZ11] , Selectivity index (SI) with Pf3D7 strain, A5489 reported as 24.01

----------
Tested on: PfW2
METHOD_NOTES: microbe, parasite or virus in culture
Type: cell-based, Plasmodium falciparum
CONDITION_SET: Plasmodium falciparum, read-out: PfW2 IC50
MEASURED_PARAMETER: IC50 (µM)
State the answer as a number, implicitly in µM.

Entry "O=C1CC2(CCN(c3cc(N4CCN(S(=O)(=O)c5ccc(F)cc5)CC4)ncn3)CC2)Oc2ccccc21" , IC50 reported as 3.89

Entry "O=C1CC2(CCN(c3cc(N4CCN(S(=O)(=O)c5cc(F)cc(F)c5)CC4)ncn3)CC2)Oc2ccccc21" , IC50 reported as 6.67

----------
Listed here: items and their measured IC50 at 24 h.
METHOD_NOTES: Cytotoxicity by MTT assay, lung cancer A5489 cell line
Format: cell-based, human
CONDITION_SET: human, lung cancer A5489 cell line
State the answer as a number, implicitly in µM.

> print(dat)
                               input.smiles  measured.parameter  unit  test.result
1  O=C1CC2(CCN(c3cc(N4CCN(S(=O)(=O)c5cc(F)cc(F)c5)CC4)ncn3)CC2)Oc2ccccc21        IC50 at 24 h    µM          122

Entry "O=C1CC2(CCN(c3cc(N4CCN(S(=O)(=O)c5ccc(F)cc5)CC4)ncn3)CC2)Oc2ccccc21" , IC50 at 24 h reported as 78.5

Entry "O=C1CC2(CCN(c3cc(N4CCN(S(=O)(=O)c5cccc(C(F)(F)F)c5)CC4)ncn3)CC2)Oc2ccccc21" , IC50 at 24 h reported as 66.2

Entry "O=C1CC2(CCN(c3cc(N4CCN(S(=O)(=O)c5ccc(F)c(F)c5)CC4)ncn3)CC2)Oc2ccccc21" , IC50 at 24 h reported as 94.2

----------
System: Vero cell
METHOD_NOTES: Cytotoxicity by MTT assay, Vero cells
Format: cell-based
CONDITION_SET: cytotoxicity IC50 / PfW2 IC50
MEASURED_PARAMETER: Selectivity index (SI) with PfW2 strain, Vero cell
No unit in the answer, only the number.

Some solved cases for reference:
> print(dat)
                               input.smiles  test.result
1  O=C1CC2(CCN(c3cc(N4CCN(S(=O)(=O)c5cc(F)cc(F)c5)CC4)ncn3)CC2)Oc2ccccc21       149.92
2  O=C1CC2(CCN(c3cc(N4CCN(S(=O)(=O)c5cccc(C(F)(F)F)c5)CC4)ncn3)CC2)Oc2ccccc21       320.51
3  O=C1CC2(CCN(c3cc(N4CCN(S(=O)(=O)c5ccc(F)c(F)c5)CC4)ncn3)CC2)Oc2ccccc21       179.21

Entry "O=C1CC2(CCN(c3cc(N4CCN(S(=O)(=O)c5ccc(F)cc5)CC4)ncn3)CC2)Oc2ccccc21" , Selectivity index (SI) with PfW2 strain, Vero cell reported as 257.06

----------
Tested on: Pf3D7
METHOD_NOTES: microbe, parasite or virus in culture
Format: cell-based
CONDITION_SET: Plasmodium falciparum, 3D7, read-out: Pf3D7 IC50
Listed here: items and their measured IC50.

> print(dat)
                                    compound  test.result
 1  O=C1CC2(CCN(c3cc(N4CCN(S(=O)(=O)c5cccs5)CC4)ncn3)CC2)Oc2ccccc21 [SZ5]      7.45 µM
 2  O=C1CC2(CCN(c3cc(N4CCN(S(=O)(=O)c5ccc(F)cc5)CC4)ncn3)CC2)Oc2ccccc21 [SZ9]      3.22 µM
 3  O=C1CC2(CCN(c3cc(N4CCN(S(=O)(=O)c5ccc([N+](=O)[O-])cc5)CC4)ncn3)CC2)Oc2ccccc21 [SZ1]      14.8 µM
 4  O=C1CC2(CCN(c3cc(N4CCN(S(=O)(=O)c5cccnc5)CC4)ncn3)CC2)Oc2ccccc21 [SZ7]      7.97 µM
 5  O=C1CC2(CCN(c3cc(N4CCN(S(=O)(=O)c5ccc(F)c(F)c5)CC4)ncn3)CC2)Oc2ccccc21 [SZ11]      3.92 µM
 6  O=C1CC2(CCN(c3cc(N4CCN(S(=O)(=O)N5CCOCC5)CC4)ncn3)CC2)Oc2ccccc21 [SZ13]      22.2 µM
 7  O=C1CC2(CCN(c3cc(N4CCN(S(=O)(=O)c5ccccc5F)CC4)ncn3)CC2)Oc2ccccc21 [SZ8]      5.61 µM
 8  O=C1CC2(CCN(c3cc(N4CCN(S(=O)(=O)c5ccccc5[N+](=O)[O-])CC4)ncn3)CC2)Oc2ccccc21 [SZ2]      18.1 µM
 9  Cc1noc(C)c1S(=O)(=O)N1CCN(c2cc(N3CCC4(CC3)CC(=O)c3ccccc3O4)ncn2)CC1 [SZ12]      8.46 µM
10  N#Cc1ccc(S(=O)(=O)N2CCN(c3cc(N4CCC5(CC4)CC(=O)c4ccccc4O5)ncn3)CC2)cc1 [SZ4]      6.33 µM

Entry O=C1CC2(CCN(c3cc(N4CCN(S(=O)(=O)c5ccc6ccccc6c5)CC4)ncn3)CC2)Oc2ccccc21 [SZ3] , IC50 reported as 25.2 µM

Entry O=C1CC2(CCN(c3cc(N4CCN(S(=O)(=O)c5cccc(C(F)(F)F)c5)CC4)ncn3)CC2)Oc2ccccc21 [SZ14] , IC50 reported as 2.84 µM

Entry O=C1CC2(CCN(c3cc(N4CCN(S(=O)(=O)c5cc(F)cc(F)c5)CC4)ncn3)CC2)Oc2ccccc21 [SZ10] , IC50 reported as 4.55 µM
